For each record, write down the corresponding log10 TGI.
# Test system: M14 melanoma
# MEASUREMENT DESCRIPTION: NCI tumour cell line growth inhibition, 48 h
Field: value | Transform: log10 | Quantity: TGI | Unit: µM

[ask] For the compound O=C(CCCCCCc1nc2ccc(Br)cc2[nH]1)NO , what log10 TGI is on record?
[reply] 0.88

[ask] For the compound C=CCNC1=C2C[C@@H](C)C[C@@H](OC)C(OC(=O)CCCN(C)C)[C@H](C)/C=C(\C)[C@@H](OC(N)=O)[C@H](OC)/C=C\C=C(/C)C(=O)NC(=CC1=O)C2=O (stereo partly drawn) , what log10 TGI is on record?
[reply] 1.32

[ask] For the compound COc1cc(/C=C2\C[C@H]3[C@@H]4CC=C5C[C@@H](N6CCCC6)CC[C@]5(C)[C@H]4CC[C@]3(C)[C@H]2O)cc(OC)c1OC , what log10 TGI is on record?
[reply] 0.68

[ask] For the compound CCCCC/C=C1/CC(CO)(COC(=O)CC(C(C)C)C(C)C)OC1=O (stereo not drawn) , what log10 TGI is on record?
[reply] 1.43

[ask] For the compound CCOC(=O)c1cc2c(n1Cc1cccc(OC)c1)-c1oncc1CC2 , what log10 TGI is on record?
[reply] 1.55

[ask] For the compound COc1c(O)c2ccccc2c2cc(O)ccc12 , what log10 TGI is on record?
[reply] 0.93

[ask] For the compound CC1=NN(c2cccc(Cl)c2)C2(C1)C(Cl)C(=O)N2c1nc2ccccc2s1 (stereo not drawn) , what log10 TGI is on record?
[reply] 1.81

[ask] For the compound CCCCc1ccc2nc(NC(=O)OC)[nH]c2c1 , what log10 TGI is on record?
[reply] -0.16

[ask] For the compound CC(C)(C)C#C[P+](c1ccccc1)(c1ccccc1)c1ccccc1 , what log10 TGI is on record?
[reply] 0.08

[ask] For the compound CSC1=Nc2ccccc2-c2nc(-c3ccccc3)cc(-c3ccccc3)c2C1 , what log10 TGI is on record?
[reply] 1.57

[ask] For the compound O=C(Nc1ccc(Cl)c(Cl)c1)Nc1ccc(Cl)c([N+](=O)[O-])c1 , what log10 TGI is on record?
[reply] 0.70

[ask] For the compound COc1ccccc1/C=C1\COc2ccc(O)c(O)c2C1=O , what log10 TGI is on record?
[reply] 0.92

[ask] For the compound CC/C(Cl)=N\OC(=O)Nc1ccc(OC)cc1 , what log10 TGI is on record?
[reply] 0.99

[ask] For the compound COc1ccc(/C=C2/SC(=Nc3c(C)nn(-c4ccccc4)c3N)NC2=O)cc1 , what log10 TGI is on record?
[reply] 1.35
